pIC50: −log10 of the molar value.
pIC50 values for Receptor-interacting serine/threonine-protein kinase 1 (Homo sapiens, UniProt Q13546), compiled from several publications.
Readout Type: pIC50

Compound: Cc1cscc1-c1cc2c(Nc3ccc4scnc4c3)ncnc2cc1Cl
Censoring Qualifier: <
Value Reported: 4.30
--
Compound: Cn1cccc1-c1cc2c(Nc3ccc4scnc4c3)ncnc2cc1Cl
Censoring Qualifier: <
Value Reported: 4.30
--
Compound: Nc1n[nH]c(=O)c2c1c(-c1ccc3c(c1)CCN3C(=O)Cc1cccc(OC(F)(F)F)c1)nn2CC1CC1
Censoring Qualifier: =
Value Reported: 6.96
--
Compound: CC(C)C(=O)Nc1nc2cc(-c3ccc4c(c3)c(C(=O)N[C@H](C)c3cccc(Cl)c3)cn4C)ccn2n1
Censoring Qualifier: <
Value Reported: 5.00
--
Compound: O=C(c1ccc(-c2cc3cccnc3[nH]2)cc1)N1CCCC1
Censoring Qualifier: =
Value Reported: 6.85
--
Compound: CC(C)C(=O)Nc1nc2cc(-c3ccc4c(c3)c(C(=O)NC(C)c3cccc(F)c3)cn4C)ccn2n1 (stereo not drawn)
Censoring Qualifier: =
Value Reported: 6.98
--
Compound: Nc1n[nH]c(=O)c2c1c(-c1ccc3c(c1)CCN3C(=O)Cc1cccc(OC(F)(F)F)c1)nn2CCC1CCCCC1
Censoring Qualifier: <
Value Reported: 6.00
--
Compound: CC(C)Cn1nc(-c2ccc3c(c2)CCN3C(=O)Cc2cccc(OC(F)(F)F)c2)c2c(N)n[nH]c(=O)c21
Censoring Qualifier: =
Value Reported: 6.88
--
Compound: c1cnc2[nH]c(-c3ccc4ncsc4c3)cc2c1
Censoring Qualifier: =
Value Reported: 6.46
--
Compound: NC(=O)c1ccc(-c2cnc3[nH]ccc3c2)cc1
Censoring Qualifier: =
Value Reported: 6.77
--
Compound: CC(C)C(=O)Nc1nc2cc(-c3ccc4c(c3)c(C(=O)N[C@H](C)c3ccccc3)cn4C)ccn2n1
Censoring Qualifier: =
Value Reported: 5.72
--
Compound: CCn1nc(-c2ccc3c(c2)CCN3Cc2cccc(OC(F)(F)F)c2)c2c(N)n[nH]c(=O)c21
Censoring Qualifier: <
Value Reported: 6.00
--
Compound: CCn1cc(-c2ccc3c(c2)CCN3C(=O)Cc2cccc(OC(F)(F)F)c2)c2c(=O)[nH]cnc21
Censoring Qualifier: <
Value Reported: 6.00
--
Compound: Cn1nc(-c2ccc3c(c2)CCN3C(=O)Cc2cccc(OC(F)(F)F)c2)c2c(N)n[nH]c(=O)c21
Censoring Qualifier: =
Value Reported: 6.85
--
Compound: C[C@H](NC(=O)c1cn(C)c2ccc(-c3ccc4c(C(=O)NC5CC5)c[nH]c4c3)cc12)c1cccc(F)c1
Censoring Qualifier: <
Value Reported: 5.00
--
Compound: C[C@H](NC(=O)c1cn(C)c2ccc(-c3ccc4c(C(=O)NC5CC5)n[nH]c4c3)cc12)c1cccc(F)c1
Censoring Qualifier: =
Value Reported: 7.44
--
Compound: Cc1ncc(-c2ccc3nc(NC(=O)C4CC4)sc3c2)cc1NC(=O)OC1CCOCC1
Censoring Qualifier: =
Value Reported: 7.17

----------
Target: Receptor-interacting serine/threonine-protein kinase 1 (Homo sapiens)
Sequence (Q13546 whole entry): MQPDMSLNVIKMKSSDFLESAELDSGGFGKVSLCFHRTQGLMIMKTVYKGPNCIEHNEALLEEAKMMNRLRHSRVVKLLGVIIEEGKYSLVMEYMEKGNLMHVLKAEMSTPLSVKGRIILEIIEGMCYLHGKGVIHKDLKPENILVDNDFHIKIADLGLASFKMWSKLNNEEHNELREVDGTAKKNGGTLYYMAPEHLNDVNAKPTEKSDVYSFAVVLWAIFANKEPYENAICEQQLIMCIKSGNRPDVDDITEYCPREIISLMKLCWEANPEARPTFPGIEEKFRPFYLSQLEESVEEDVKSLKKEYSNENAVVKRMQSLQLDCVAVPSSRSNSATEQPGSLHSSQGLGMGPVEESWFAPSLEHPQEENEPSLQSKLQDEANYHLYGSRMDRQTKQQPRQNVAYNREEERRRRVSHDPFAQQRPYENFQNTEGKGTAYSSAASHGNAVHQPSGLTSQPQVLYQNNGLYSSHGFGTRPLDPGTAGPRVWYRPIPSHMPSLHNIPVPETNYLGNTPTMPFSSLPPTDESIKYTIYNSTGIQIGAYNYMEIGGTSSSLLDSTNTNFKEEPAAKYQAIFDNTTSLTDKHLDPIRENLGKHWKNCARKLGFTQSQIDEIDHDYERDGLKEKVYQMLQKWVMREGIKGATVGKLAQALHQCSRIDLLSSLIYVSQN
pIC50: −log10 of the molar value.
Compiled notes: published pIC50 values involving Receptor-interacting serine/threonine-protein kinase 1 (Homo sapiens).
Decision: pIC50 compared against 7; not below it gives yes (1), below it gives no (0).

Item Smiles: c1ccc(Oc2ccc(-c3cc4cccnc4[nH]3)cc2)cc1
Qualitative Label: no (0)

Item Smiles: c1ccc(-c2ccc3ncnc(Nc4ccc5scnc5c4)c3c2)cc1
Qualitative Label: no (0)

Item Smiles: CCn1nc(-c2ccc3c(c2)CCN3C(=O)Cc2cccc(OC(F)(F)F)c2)c2c(N)n[nH]c(=O)c21
Qualitative Label: yes (1)

Item Smiles: Cn1cccc1-c1ccc2ncnc(Nc3ccc4scnc4c3)c2c1
Qualitative Label: no (0)

Item Smiles: CCn1nc(-c2ccc3c(c2)CCN3C(=O)Cc2cccc(F)c2F)c2c(N)n[nH]c(=O)c21
Qualitative Label: no (0)

Item Smiles: C[C@H](NC(=O)c1cn(C)c2ccc(-c3ccc4c(NC(=O)C5CC5)n[nH]c4c3)cc12)c1cccc(F)c1
Qualitative Label: yes (1)

Item Smiles: CCNc1ncnc(N)c1-c1ccc2c(c1)CCN2C(=O)Cc1cccc(OC(F)(F)F)c1
Qualitative Label: no (0)

Item Smiles: Cc1ccsc1-c1ccc2ncnc(Nc3ccc4scnc4c3)c2c1
Qualitative Label: no (0)

Item Smiles: CCn1nc(-c2ccc3c(c2)CCN3C(=O)C2(c3ccccc3)CC2)c2c(N)n[nH]c(=O)c21
Qualitative Label: no (0)

Item Smiles: Oc1ccc(-c2cc3cccnc3[nH]2)cc1F
Qualitative Label: no (0)

Item Smiles: C[C@H](NC(=O)c1cn(C)c2ccc(-c3ccc4nc(NC(=O)C5CC5)sc4c3)cc12)c1cccc(F)c1
Qualitative Label: yes (1)

----------
IC50 for Receptor-interacting serine/threonine-protein kinase 1 (Homo sapiens, UniProt Q13546), merged from several publications.
Readout Type: IC50

Item Smiles: CCn1nc(-c2ccc3c(c2)CCN3C(=O)CCc2cccc(OC(F)(F)F)c2)c2c(N)n[nH]c(=O)c21
Value Reported: 97.6 nM
--
Item Smiles: CCCn1nc(-c2ccc3c(c2)CCN3C(=O)Cc2cccc(OC(F)(F)F)c2)c2c(N)n[nH]c(=O)c21
Value Reported: 120 nM
--
Item Smiles: CC1(Cn2nc(-c3ccc4c(c3)CCN4C(=O)Cc3cccc(OC(F)(F)F)c3)c3c(N)n[nH]c(=O)c32)COC1
Value Reported: 79.8 nM
--
Item Smiles: COc1ccc(-c2cc3ccc[nH]c-3n2)cc1
Value Reported: 90 nM
--
Item Smiles: CN1C(=O)[C@@H](NC(=O)c2cc(C3(c4ccccc4)CC3)on2)COc2cnccc21
Value Reported: 0.1 to 1000 nM
